target: IFN-αH2 (human, UniProt P01570 24-189); assay: cell-based or functional assay
IC50, ISRE assay under 0.03 nM gets true (1), anything at or over 0.03 nM gets false (0).

INSERT INTO measurements (binder, classassignment) VALUES
  ('IFWM3423 (antibody, IgG1, V domains shown) VH: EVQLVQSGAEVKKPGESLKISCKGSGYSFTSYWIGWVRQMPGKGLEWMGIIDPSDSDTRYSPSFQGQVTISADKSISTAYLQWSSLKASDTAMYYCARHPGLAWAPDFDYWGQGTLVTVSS VL: DIQMTQSPSSLSASVGDRVTITCRASQSIDGFLNWYQQKPGKAPKLLIYFASSLQSGVPSRFSGSGSGTDFTLTISSLQPEDFATYYCQQSYDLPITFGQGTKVEIK', 'true (1)'),
  ('IFWM3421 (antibody, IgG1, V domains shown) VH: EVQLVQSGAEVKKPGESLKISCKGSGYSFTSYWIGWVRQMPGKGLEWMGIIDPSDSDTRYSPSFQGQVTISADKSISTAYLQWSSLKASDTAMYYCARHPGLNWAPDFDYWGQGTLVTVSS VL: DIQMTQSPSSLSASVGDRVTITCRASQSIDGFLNWYQQKPGKAPKLLIYFASSLQSGVPSRFSGSGSGTDFTLTISSLQPEDFATYYCQQSYDLPITFGQGTKVEIK', 'true (1)'),
  ('IFWM3331 (antibody, IgG1, V domains shown) VH: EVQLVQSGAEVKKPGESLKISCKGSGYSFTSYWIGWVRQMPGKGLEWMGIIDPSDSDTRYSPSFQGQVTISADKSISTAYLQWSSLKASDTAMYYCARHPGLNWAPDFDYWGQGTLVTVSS VL: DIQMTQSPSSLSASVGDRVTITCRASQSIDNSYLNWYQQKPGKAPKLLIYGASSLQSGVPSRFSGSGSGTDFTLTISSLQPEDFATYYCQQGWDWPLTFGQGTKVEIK', 'false (0)'),
  ('IFWM3308 (antibody, IgG1, V domains shown) VH: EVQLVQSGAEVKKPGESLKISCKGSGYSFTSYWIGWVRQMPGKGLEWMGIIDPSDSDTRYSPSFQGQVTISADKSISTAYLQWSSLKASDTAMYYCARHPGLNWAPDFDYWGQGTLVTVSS VL: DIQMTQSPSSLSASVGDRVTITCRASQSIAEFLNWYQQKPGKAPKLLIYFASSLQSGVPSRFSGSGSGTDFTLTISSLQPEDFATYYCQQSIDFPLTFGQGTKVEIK', 'false (0)');

Turning to the following binder.
Query: Record IFWM3322 (antibody, IgG1, V domains shown) VH: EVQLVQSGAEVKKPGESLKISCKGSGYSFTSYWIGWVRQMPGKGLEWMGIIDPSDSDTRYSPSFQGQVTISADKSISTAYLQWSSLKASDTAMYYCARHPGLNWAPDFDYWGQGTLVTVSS VL: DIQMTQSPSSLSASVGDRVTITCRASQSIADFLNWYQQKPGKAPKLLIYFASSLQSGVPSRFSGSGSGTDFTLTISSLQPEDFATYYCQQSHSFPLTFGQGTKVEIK : is its IC50, ISRE assay strictly below 0.03 nM?
Reply: false (0)
